Target or system UniProt Q13557: recorded IC50 listed per item.

Observe how each entry below is paired with its result.
NCCNc1cccc(-c2ccnc3[nH]c4ccccc4c23)c1 [Compound I-7]: ≤ 50 nM
c1cc(-c2ccnc3[nH]c4ccccc4c23)cc(-n2ccnc2)c1 [Compound I-2]: ≥ 1000 nM
NCCOc1cccc(-c2ccnc3[nH]c4ccccc4c23)c1 [Compound I-9]: ≤ 50 nM
Cc1ccc2[nH]c3nccc(-c4cccc(NCCN)c4)c3c2c1 [Compound I-13]: ≤ 50 nM
Cc1nn(C2CCNCC2)cc1-c1ccnc2[nH]c3ccccc3c12 [Compound 9l]: ≥ 1000 nM

Please look at the items below and tell me IC50 for each one, in order.
1. Clc1cnccc1-c1ccnc2[nH]c3ccccc3c12 [Compound 8r]
2. c1ccc2c(c1)[nH]c1nccc(-c3cncc(N4CCNCC4)c3)c12 [Compound 9a]

[A]
1. ≥ 1000 nM
2. 250 to 1000 nM
